Attribution: patent EP4725946A1

- Method notes: Pharmacokinetic study in mice
- Type: in vivo
- Experimental setup: mouse, po; male mice, p.o. (10 mg/kg), plasma; read-out: Cmax
- Description: Six male mice weighing 20-30 g were randomly divided into two groups. […] Plasma samples were processed and analyzed using LC/MS/MS in MRM)mode. A validated standard curve was established for the quantitative determination of the target compound in plasma, enabling the generation of plasma drug concentration-time profiles. Pharmacokinetic parameters were calculated using WinNonlin software with a non-compartmental model.
Task for the reader: assign each of the following compounds its reported Cmax.
One number for each entry, in ng/mL.

Provide Cmax for all items below, preserving their order.
1. Cn1c(=O)n(C2CCC(=O)NC2=O)c2cccc(N3CCN(CCN4CCC5(CC4)Cc4cc(NC(=O)c6cnn7cccnc67)c(N6CCC(CO)CC6)cc4O5)CC3)c21 (stereo not shown)
2. Cn1c(=O)n(C2CCC(=O)NC2=O)c2cccc(N3CCN(C(=O)CN4CCC5(CC4)Cc4cc(NC(=O)c6cnn7cccnc67)c(N6CCC(CO)CC6)cc4O5)CC3)c21 (stereo not shown)
3. Cn1c(=O)n(C2CCC(=O)NC2=O)c2cccc(C#CCO[C@H]3CC[C@H](CN4CCC5(CC4)Cc4cc(NC(=O)c6cnn7cccnc67)c(N6CCC(C(C)(C)O)CC6)cc4O5)CC3)c21 (stereo partly shown)
4. Cn1c(=O)n(C2CCC(=O)NC2=O)c2cccc(N3CCC(CN4CCC5(CC4)Cc4cc(NC(=O)c6cnn7cccnc67)c(N6CCC(CO)CC6)cc4O5)CC3)c21 (stereo not shown)
5. Cc1cnc2c(C(=O)Nc3cc4c(cc3N3CCC(CO)CC3)OC3(CCN(C[C@H]5CC[C@H](OCC#Cc6cccc7c6n(C)c(=O)n7C6CCC(=O)NC6=O)CC5)CC3)C4)cnn2c1 (stereo partly shown)
6. Cn1c(=O)n(C2CCC(=O)NC2=O)c2cccc(C#CCO[C@H]3CC[C@H](CN4CCC5(CC4)Cc4cc(NC(=O)c6coc7cccnc67)c(N6CCC(CO)CC6)cc4O5)CC3)c21 (stereo partly shown)

1. 1210
2. 870
3. 2990
4. 2600
5. 1740
6. 2070
